Biological target: butyrylcholinesterase (BuChE) (Homo sapiens, UniProt P06276)
Construct: purchased MyBiosource, CA, and USA MBS846801
Sequence (P06276 29-602): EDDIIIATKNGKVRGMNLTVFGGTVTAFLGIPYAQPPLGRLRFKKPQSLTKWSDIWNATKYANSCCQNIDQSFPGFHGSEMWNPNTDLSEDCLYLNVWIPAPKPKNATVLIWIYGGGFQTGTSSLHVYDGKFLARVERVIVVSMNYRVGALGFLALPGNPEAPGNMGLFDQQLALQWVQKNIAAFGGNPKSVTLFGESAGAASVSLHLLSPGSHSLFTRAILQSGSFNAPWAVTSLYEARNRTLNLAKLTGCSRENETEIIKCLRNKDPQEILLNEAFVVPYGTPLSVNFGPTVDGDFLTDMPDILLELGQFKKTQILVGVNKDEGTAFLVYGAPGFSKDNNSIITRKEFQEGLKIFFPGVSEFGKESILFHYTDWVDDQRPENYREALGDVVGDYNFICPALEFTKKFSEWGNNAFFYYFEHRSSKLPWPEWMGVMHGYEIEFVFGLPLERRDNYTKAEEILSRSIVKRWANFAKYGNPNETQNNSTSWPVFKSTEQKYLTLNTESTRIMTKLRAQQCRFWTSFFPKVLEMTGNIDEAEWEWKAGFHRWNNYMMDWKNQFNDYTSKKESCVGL
Test: biochemical
Method: The in vitro AChE and BuChE inhibitory effects and selectivity of nine TCM compounds were evaluated using the QuantiChrom^TM AChE inhibitor screening kit (IACE-100, bioassay systems, USA) for AChE inhibition and the BuChE activity kit (catalog # MBS846801, MyBiosource, CA, USA) for BuChE inhibition. […] The selectivity of the compounds for AChE relative to BuChE was determined by calculating the Selectivity Index (SI) using the formula BuChE IC50 values are divided by AChE IC50 values to obtain SI.
pIC50: −log10 of the molar value.
Reported pIC50 values are given for each entry in this list.
experimental_endpoint: pIC50

[[record]]
compound = "COc1cc2c(c(OC)c1OC)-c1c(cc3c(c1OC)OCO3)CC(C)C(C)C2 (stereo not drawn)"
experimental_result = 7.08

[[record]]
compound = "COc1cc2c3c(c1O)-c1c(ccc(OC)c1OC)C[C@@H]3NCC2"
experimental_result = 6.99

[[record]]
compound = "C=C1CCC[C@]2(C)C[C@]3(O)OC(=O)C(C)=C3C[C@@H]12 [Atractylenolide III]"
experimental_result = 7.50


* * *

target: butyrylcholinesterase (BuChE) (Homo sapiens); construct: purchased MyBiosource, CA, and USA MBS846801; test: biochemical; details: mean ± SD, n = 3, each in triplicate; read-out: IC50 BuChE
experimental_endpoint: IC50 (µM)

[[record]]
compound = "COC(=O)C1=CO[C@@H](O[C@@H]2O[C@H](CO)[C@@H](O)[C@H](O)[C@H]2O)[C@@H]2[C@H](C)O[C@@H](O)C[C@H]12 [Morroniside]"
test_target = "butyrylcholinesterase (BuChE) (Homo sapiens)"
experimental_endpoint = "IC50"
experimental_result = 0.0182

[[record]]
compound = "O=c1cc(-c2ccccc2)oc2c(O)c(O)cc(O)c12"
test_target = "butyrylcholinesterase (BuChE) (Homo sapiens)"
experimental_endpoint = "IC50"
experimental_result = 0.0152

[[record]]
compound = "CC1(C)C=Cc2c(cc3occ(-c4ccc(O)cc4)c(=O)c3c2O)O1"
test_target = "butyrylcholinesterase (BuChE) (Homo sapiens)"
experimental_endpoint = "IC50"
experimental_result = 0.0292

[[record]]
compound = "Cc1cc(=O)cc2c3c1CC1C4OC(=O)C(CC2)(C(C)C4O)C31 (stereo not shown)"
test_target = "butyrylcholinesterase (BuChE) (Homo sapiens)"
experimental_endpoint = "IC50"
experimental_result = 0.0123


* * *

biological target: acetylcholinesterase (AChE) (Homo sapiens, UniProt P22303); construct: purchased bioassay systems, USA IACE-100; experiment: biochemical; settings: mean ± SD, n = 3, each in triplicate
Sequence (P22303 32-614): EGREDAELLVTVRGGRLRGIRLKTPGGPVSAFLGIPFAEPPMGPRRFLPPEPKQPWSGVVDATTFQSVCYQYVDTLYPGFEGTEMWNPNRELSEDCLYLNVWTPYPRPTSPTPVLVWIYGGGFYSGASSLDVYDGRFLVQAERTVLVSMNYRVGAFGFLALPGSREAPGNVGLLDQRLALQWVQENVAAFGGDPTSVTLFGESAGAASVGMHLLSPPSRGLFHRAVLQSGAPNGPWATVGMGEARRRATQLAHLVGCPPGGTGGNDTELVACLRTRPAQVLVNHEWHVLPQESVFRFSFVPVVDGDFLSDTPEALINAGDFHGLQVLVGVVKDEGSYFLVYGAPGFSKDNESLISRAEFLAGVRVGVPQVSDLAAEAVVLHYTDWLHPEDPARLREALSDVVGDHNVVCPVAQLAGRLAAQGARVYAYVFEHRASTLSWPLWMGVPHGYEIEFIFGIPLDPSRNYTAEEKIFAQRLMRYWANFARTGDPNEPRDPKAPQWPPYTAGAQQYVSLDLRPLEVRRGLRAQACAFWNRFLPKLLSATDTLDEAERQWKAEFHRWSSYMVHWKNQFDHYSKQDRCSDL
pIC50: −log10 of the molar value.
experimental_endpoint: pIC50

[[record]]
compound = "O=c1cc(-c2ccccc2)oc2c(O)c(O)cc(O)c12"
experimental_endpoint = "pIC50"
experimental_result = 7.47

[[record]]
compound = "COc1cc2c3c(c1O)-c1c(ccc(OC)c1OC)C[C@@H]3NCC2"
experimental_endpoint = "pIC50"
experimental_result = 7.06

[[record]]
compound = "CC1(C)C=Cc2c(cc3occ(-c4ccc(O)cc4)c(=O)c3c2O)O1"
experimental_endpoint = "pIC50"
experimental_result = 7.04

[[record]]
compound = "COC(=O)C1=CO[C@@H](O[C@@H]2O[C@H](CO)[C@@H](O)[C@H](O)[C@H]2O)[C@@H]2[C@H](C)O[C@@H](O)C[C@H]12 [Morroniside]"
experimental_endpoint = "pIC50"
experimental_result = 7.38

[[record]]
compound = "COc1cc2c(c(OC)c1OC)-c1c(cc3c(c1OC)OCO3)CC(C)C(C)C2 (stereo not shown)"
experimental_endpoint = "pIC50"
experimental_result = 7.04

[[record]]
compound = "Cc1cc(=O)cc2c3c1CC1C4OC(=O)C(CC2)(C(C)C4O)C31 (stereo not shown)"
experimental_endpoint = "pIC50"
experimental_result = 7.35

[[record]]
compound = "C=C1CCC[C@]2(C)C[C@]3(O)OC(=O)C(C)=C3C[C@@H]12 [Atractylenolide III]"
experimental_endpoint = "pIC50"
experimental_result = 7.08

